Each recorded value in this set is attributed to patent US20260201064A1.

Exercise: for every item that follows, state its recorded pKd.
Assayed system: T1, recombinant human ASM protein (human, UniProt P17405 47-630)
T1 construct: Recombinant human ASM in solution; also called acid sphingomyelinase (ASM) protein
T1 sequence: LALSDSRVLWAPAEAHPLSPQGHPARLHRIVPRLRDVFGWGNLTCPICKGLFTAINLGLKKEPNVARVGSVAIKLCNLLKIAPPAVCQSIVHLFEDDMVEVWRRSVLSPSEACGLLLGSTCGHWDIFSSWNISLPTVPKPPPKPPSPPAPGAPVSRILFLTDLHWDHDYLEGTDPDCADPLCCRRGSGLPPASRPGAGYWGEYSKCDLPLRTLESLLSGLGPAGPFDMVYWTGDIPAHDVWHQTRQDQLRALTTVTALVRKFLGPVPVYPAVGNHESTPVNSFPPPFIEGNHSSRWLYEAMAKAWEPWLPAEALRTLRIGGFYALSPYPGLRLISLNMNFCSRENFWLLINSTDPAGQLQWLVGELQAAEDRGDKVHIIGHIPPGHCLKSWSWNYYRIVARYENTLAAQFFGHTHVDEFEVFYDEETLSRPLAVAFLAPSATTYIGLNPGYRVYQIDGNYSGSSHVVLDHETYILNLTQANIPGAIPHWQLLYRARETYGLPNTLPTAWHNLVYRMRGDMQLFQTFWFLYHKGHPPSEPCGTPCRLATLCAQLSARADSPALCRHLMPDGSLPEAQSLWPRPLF
Assay protocol: BLI (Octet), antibody on AHC sensor
One number for each entry, as −log10 of the molar value.

| Binder | Result |
| --- | --- |
| #9104a-E3 (antibody, human IgG4 S228P, lambda, V domains shown, VH of #9104v-H13 with VL of #9104v-L65; full-length IgG, lambda) VH: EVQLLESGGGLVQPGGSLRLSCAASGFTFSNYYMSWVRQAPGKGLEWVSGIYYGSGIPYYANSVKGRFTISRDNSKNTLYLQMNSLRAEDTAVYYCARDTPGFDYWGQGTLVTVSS VL: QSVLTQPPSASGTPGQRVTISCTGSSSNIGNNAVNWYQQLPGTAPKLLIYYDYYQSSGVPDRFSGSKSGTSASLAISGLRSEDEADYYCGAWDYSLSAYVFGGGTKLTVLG | 9.55 |
| #9104a-C4 (antibody, human IgG4 S228P, lambda, V domains shown, VH of #9104v-H17 with VL of #9104v-L23; full-length IgG, lambda) VH: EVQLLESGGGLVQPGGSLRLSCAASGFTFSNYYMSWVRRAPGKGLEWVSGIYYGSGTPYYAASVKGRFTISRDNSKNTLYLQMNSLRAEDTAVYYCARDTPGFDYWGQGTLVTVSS VL: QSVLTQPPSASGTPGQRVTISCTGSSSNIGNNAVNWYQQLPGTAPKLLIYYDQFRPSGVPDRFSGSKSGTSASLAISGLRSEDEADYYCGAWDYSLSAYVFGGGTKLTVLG | 9.69 |
| #9104a-B2 (antibody, human IgG4 S228P, lambda, V domains shown, VH of #9104v-H11 with VL of #9104v-L21; full-length IgG, lambda) VH: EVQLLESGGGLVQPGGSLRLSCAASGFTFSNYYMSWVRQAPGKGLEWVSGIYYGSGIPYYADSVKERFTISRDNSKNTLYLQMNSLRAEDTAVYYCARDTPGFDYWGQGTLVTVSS VL: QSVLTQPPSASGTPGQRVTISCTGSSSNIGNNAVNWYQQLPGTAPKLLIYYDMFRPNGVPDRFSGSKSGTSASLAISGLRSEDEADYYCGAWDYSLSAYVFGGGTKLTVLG | 9.94 |

[in] # pKd lookup, item #9104a-A5 (antibody, human IgG4 S228P, lambda, V domains shown, VH of #9104v-H19 with VL of #9104v-L20; full-length IgG, lambda) VH: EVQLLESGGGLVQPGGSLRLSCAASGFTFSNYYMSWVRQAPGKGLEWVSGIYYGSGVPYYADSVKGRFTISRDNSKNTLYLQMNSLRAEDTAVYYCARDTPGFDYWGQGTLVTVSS VL: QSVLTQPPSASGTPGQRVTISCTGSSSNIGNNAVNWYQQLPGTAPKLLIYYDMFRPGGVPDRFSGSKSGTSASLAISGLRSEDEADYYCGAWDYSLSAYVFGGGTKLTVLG
[out] 9.80
